method.notes: Caco-2 transport
condition.info: human
readout: efflux ratio at 2 h, 10 µM

The molecule listed as CNC(=C[N+](=O)[O-])NCCSCc1ccc(CN(C)C)o1 [Ranitidine] shows efflux ratio at 2 h, 10 µM equal to 3.3

* * *

method.notes: HepG2 cytotoxicity / cell health parameters
Type: cell-based, human
condition.info: human, Cytochrome C release AC50
readout: AC50 (µM)
Express your answer in µM, writing the number without its unit.

The compound listed as CN(C)CCCN1c2ccccc2Sc2ccc(Cl)cc21 [Chlorpromazine, reference compound] shows AC50 equal to 16

* * *

method.notes: in vitro
condition.info: human, Caco-2
readout: Papp A→B at 2 h, 10 µM (×10⁻⁶ cm/s)
Express your answer in ×10⁻⁶ cm/s, writing the number without its unit.

The molecule listed as CC(=O)CC(c1ccccc1)c1c(O)c2ccccc2oc1=O (stereo not shown) shows Papp A→B at 2 h, 10 µM equal to 37
